# Lookup of reported IC50 keyed by entry
# Test system: human lung cancer strain NCI-H441;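 also: cell proliferation inhibition after four days measured by CellTiter-Glo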
# TEST_DESCRIPTION: cells
# CONDITION_DESCRIPTION: NCI-H441, 96 h, read-out: NCI-H441 IC50 (nM), NCI-H441 cell proliferation, 4 days, CellTiter-Glo
RECORDED_ENDPOINT: IC50 (nM)

- MOLECULE_SMILES: "CCO[C@@H]1C[C@H]2C(=O)NC3(CC(C)(C)C3)C(=O)N(C)[C@@H](C3CCCC3)C(=O)N(C)[C@H](C(=O)N(C)CC)CC(=O)N(C)[C@@H](C3CCC3)C(=O)N[C@@H]([C@@H](C)CC)C(=O)N(C)CC(=O)N(C)[C@H]3C/C=C\\CCN(C3=O)[C@@H](Cc3ccc(C(F)(F)F)cc3)C(=O)N(C)CC(=O)N[C@@H](CCc3ccc(C(F)(F)F)c(OC)c3)C(=O)N2C1"
  RECORDED_ENDPOINT: "IC50"
  UNIT_LABEL: "nM"
  READOUT_NUMBER: 17.7
- MOLECULE_SMILES: "CCO[C@@H]1C[C@H]2C(=O)NC3(CC(C)(C)C3)C(=O)N(C)[C@@H](C3CCCC3)C(=O)N(C)[C@H](C(=O)N(C)C)CC(=O)N(C)[C@@H](CC3CCC3)C(=O)N[C@@H]([C@@H](C)CC)C(=O)N(C)CC(=O)N(C)[C@H]3C/C=C\\CCN(C3=O)[C@@H](Cc3ccc(C(F)(F)F)cc3)C(=O)N(C)CC(=O)N[C@@H](CCc3ccc(C(F)(F)F)c(Cl)c3)C(=O)N2C1"
  RECORDED_ENDPOINT: "IC50"
  UNIT_LABEL: "nM"
  READOUT_NUMBER: 5.8
- MOLECULE_SMILES: "CC[C@H](C)[C@@H]1NC(=O)[C@H](CC(C)C)N(C)C(=O)C[C@@H](C(=O)N(C)CC)N(C)C(=O)[C@H](C2CCCC2)N(C)C(=O)C2(CC(C)(C)C2)NC(=O)[C@@H]2C[C@H](C)CN2C(=O)[C@H](CCc2ccc(C(F)(F)F)c(OC)c2)NC(=O)CN(C)C(=O)[C@H](Cc2ccc(C)cc2)N2CC/C=C\\C[C@@H](C2=O)N(C)C(=O)CN(C)C1=O"
  RECORDED_ENDPOINT: "IC50"
  UNIT_LABEL: "nM"
  READOUT_NUMBER: 10.8
- MOLECULE_SMILES: "CCC[C@H]1C(=O)N[C@@H]([C@@H](C)CC)C(=O)N(C)CC(=O)N(C)[C@H]2C/C=C\\CCN(C2=O)[C@@H](Cc2ccc(C)cc2)C(=O)N(C)CC(=O)N[C@@H](CCc2ccc(C(F)(F)F)c(Cl)c2)C(=O)N2C[C@H](OCC)C[C@H]2C(=O)NC2(CC(C)(C)C2)C(=O)N(C)[C@@H](C2CCCC2)C(=O)N(C)[C@H](C(=O)N(C)C)CC(=O)N1C"
  RECORDED_ENDPOINT: "IC50"
  UNIT_LABEL: "nM"
  READOUT_NUMBER: 5.3
- MOLECULE_SMILES: "CCCN(C)C(=O)[C@@H]1CC(=O)N(C)[C@@H](CC)C(=O)N[C@@H]([C@@H](C)CC)C(=O)N(C)CC(=O)N(C)[C@H]2C/C=C\\CCN(C2=O)[C@@H](Cc2ccc(C(F)(F)F)cc2)C(=O)N(C)CC(=O)N[C@@H](CCc2ccc(C(F)(F)F)c(OC)c2)C(=O)N2C[C@H](OCC)C[C@H]2C(=O)NC2(CC(C)(C)C2)C(=O)N(C)[C@@H](C2CCCC2)C(=O)N1C"
  RECORDED_ENDPOINT: "IC50"
  UNIT_LABEL: "nM"
  READOUT_NUMBER: 2.5
- MOLECULE_SMILES: "CCCN(C)C(=O)[C@@H]1CC(=O)N(C)[C@@H](CC(F)F)C(=O)N[C@@H]([C@@H](C)CC)C(=O)N(C)CC(=O)N(C)[C@H]2C/C=C\\CCN(C2=O)[C@@H](Cc2ccc(C(F)(F)F)cc2)C(=O)N(C)CC(=O)N[C@@H](CCc2ccc(C(F)(F)F)c(OC)c2)C(=O)N2C[C@@H](C)C[C@H]2C(=O)NC2(CC(C)(C)C2)C(=O)N(C)[C@@H](C2CCCC2)C(=O)N1C"
  RECORDED_ENDPOINT: "IC50"
  UNIT_LABEL: "nM"
  READOUT_NUMBER: 11.1
- MOLECULE_SMILES: "CC[C@H](C)[C@@H]1NC(=O)[C@H](CC(C)C)N(C)C(=O)C[C@@H](C(=O)N(C)C)N(C)C(=O)[C@H](C2CCCC2)N(C)C(=O)C2(CC(C)(C)C2)NC(=O)[C@@H]2C[C@H](C)CN2C(=O)[C@H](CCc2cc(F)c(C(F)(F)F)c(F)c2)NC(=O)CN(C)C(=O)[C@H](Cc2ccc(C(F)(F)F)cc2)N2CC/C=C\\C[C@@H](C2=O)N(C)C(=O)CN(C)C1=O"
  RECORDED_ENDPOINT: "IC50"
  UNIT_LABEL: "nM"
  READOUT_NUMBER: 6.4
- MOLECULE_SMILES: "CCO[C@@H]1C[C@H]2C(=O)N(C)C3(CCC3)C(=O)N(C)[C@@H](C3CCCC3)C(=O)N(C)[C@H](C(=O)N(C)C)CC(=O)N(C)[C@@H](CC)C(=O)N[C@@H]([C@@H](C)CC)C(=O)N(C)CC(=O)N(C)[C@H]3C/C=C\\CCN(C3=O)[C@@H](Cc3ccc(C)cc3)C(=O)N(C)CC(=O)N[C@@H](CCc3cc(F)c(C(F)(F)F)c(F)c3)C(=O)N2C1"
  RECORDED_ENDPOINT: "IC50"
  UNIT_LABEL: "nM"
  READOUT_NUMBER: 2.1
- MOLECULE_SMILES: "CC[C@H](C)[C@@H]1NC(=O)[C@H](CC2CCC2)N(C)C(=O)C[C@@H](C(=O)N(C)C)N(C)C(=O)[C@H](C2CCCC2)N(C)C(=O)C2(CC(C)(C)C2)NC(=O)[C@@H]2CCCN2C(=O)[C@H](CCc2cc(F)c(C(F)(F)F)c(F)c2)NC(=O)CN(C)C(=O)[C@H](Cc2ccc(C(F)(F)F)cc2)N2CC/C=C\\C[C@@H](C2=O)N(C)C(=O)CN(C)C1=O"
  RECORDED_ENDPOINT: "IC50"
  UNIT_LABEL: "nM"
  READOUT_NUMBER: 18.3
- MOLECULE_SMILES: "CC[C@H](C)[C@@H]1NC(=O)[C@H](CC2CCC2)N(C)C(=O)C[C@@H](C(=O)N(C)C)N(C)C(=O)[C@H](C2CCCC2)N(C)C(=O)C2(CCC2)N(C)C(=O)[C@@H]2C[C@@H](C)CN2C(=O)[C@H](CCc2cc(F)c(C(F)(F)F)c(F)c2)NC(=O)CN(C)C(=O)[C@H](Cc2ccc(C)cc2)N2CC/C=C\\C[C@@H](C2=O)N(C)C(=O)CN(C)C1=O"
  RECORDED_ENDPOINT: "IC50"
  UNIT_LABEL: "nM"
  READOUT_NUMBER: 7.6
- MOLECULE_SMILES: "CCO[C@@H]1C[C@H]2C(=O)NC3(CC(C)(C)C3)C(=O)N(C)[C@@H](C3CCCC3)C(=O)N(C)[C@H](C(=O)N(C)CC)CC(=O)N(C)[C@@H](CC3CC3)C(=O)N[C@@H]([C@@H](C)CC)C(=O)N(C)CC(=O)N(C)[C@H]3C/C=C\\CCN(C3=O)[C@@H](Cc3ccc(C(F)(F)F)cc3)C(=O)N(C)CC(=O)N[C@@H](CCc3cc(F)c(C(F)(F)F)c(F)c3)C(=O)N2C1"
  RECORDED_ENDPOINT: "IC50"
  UNIT_LABEL: "nM"
  READOUT_NUMBER: 2.1
